Molecular target: T1, cynomolgus (Macaca fascicularis) ST2L extracellular domain with C-terminal His6 tag (Macaca fascicularis (cynomolgus), UniProt Q01638 19-321 (human entry))
T1 construct: also called cyno ST2L-ECD; cynoST2L-ECD
T1 chain: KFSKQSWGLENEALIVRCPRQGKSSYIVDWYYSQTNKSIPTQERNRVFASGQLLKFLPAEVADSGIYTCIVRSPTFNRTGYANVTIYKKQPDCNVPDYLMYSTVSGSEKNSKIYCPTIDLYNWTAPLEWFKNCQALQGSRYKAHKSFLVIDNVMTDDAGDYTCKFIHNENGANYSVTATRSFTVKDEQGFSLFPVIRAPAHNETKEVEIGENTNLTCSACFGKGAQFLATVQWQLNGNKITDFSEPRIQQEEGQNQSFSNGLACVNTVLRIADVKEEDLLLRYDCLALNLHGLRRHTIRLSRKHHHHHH
Test: SPR, mAb captured, ST2L-ECD in solution
Recorded Metric: koff (s⁻¹)
Output spec: scalar in s⁻¹, unitless text.

Before answering, review these 3 worked examples.
Incoming: What does the record list as koff for STLM15 (antibody, human IgG2, V domains shown, Mouse hybridoma C2244 cloned into human IgG2 background (STLM15); also called C2244) VH: EVQLQESGPGLVKPSQSLSLTCTVTGFSITSDYAWNWIRQFPGSKLEWMGFISYSGDTSFNPSLKSRISVTRDTSKNQFFLQLNSVTTEDTATYYCASYDGYSFDYWGQGTTLTVSS VL: DIVLTQSPASLAISLGQRATISCRASKSVSTSGSSYMFWYQQKPGQPPKLLIYLASNLESGVPARFSGSGSGTDFTLNIHPVEEEDAAAYYCQHSREIPYTFGGGTKLEIK ?
Outgoing: 5.3e-05

Incoming: What does the record list as koff for STLM62 (antibody, human IgG2, V domains shown, Mouse hybridoma C2494 cloned into human IgG2 background (STLM62); also called C2494) VH: EVQLQQSVAELVRPGASVKLSCTASAFNIKDDYMHWVKQRPEQGLEWIGRIDPAIGNTEYAPKFQDKATMTADTSSNTAYLQLSSLTSEDTAVYYCALGDFYAMDYWGQGTSVTVSS VL: ETTVTQSPASLSVATGEKVTIRCITNTDIDDVIHWYQQKPGEPPKLLISEGNTLRPGVPSRFSSSGYGTDFVFTIENTLSEDVADYYCLQSDNMLTFGAGTKLELK ?
Outgoing: 0.000539

Incoming: What does the record list as koff for ST2M48 (antibody, V domains shown, Phage-derived Fab converted to IgG) VH: EVQLVQSGAEVKKPGESLKISCKGSGYSFTSYWIGWVRQMPGKGLEWMGIIYPGDSYTRYSPSFQGQVTISADKSISTAYLQWSSLKASDTAMYYCARLSGRFDYWGQGTLVTVSS VL: EIVLTQSPATLSLSPGERATLSCRASQSVRDALAWYQQKPGQAPRLLIYFASNRATGIPARFSGSGSGTDFTLTISSLEPEDFAVYYCQQFNTWPITFGQGTKVEIK ?
Outgoing: 0.00265

Shift focus to the following entry.
Incoming: What does the record list as koff for C2521 (antibody, V domains shown, Mouse hybridoma antibody; also called C2521A) VH: QIQLQQSGPELVRPGTSVKISCKASGYTFLTYWMNWVKQRPGQGLEWIGQIFPASGSTYYNEMFKDKATLTVDTSSSTAYMQLSSLTSEDTAVYFCARSENIYYINFQYYFAYWGQGTTLTVSS VL: ILLTQSPAILSVSPGERVSFSCRASQNIGTRMHWYQQRTNGSPRLLIKYASESISGIPSRFSGSGSGTDFTLTISSVESEDIADYYCQQSNTWPFTFGSGTKLEIK ?
Outgoing: 0.00166

Where do the numbers come from? From patent US20170066831A1.
